Taken from patent US20220406376A1.

- targetOrTestSystem: T1, extracellular portion of human CD137 fused to a histidine-containing peptide (human, UniProt Q07011 24-186)
- T1 construct: extracellular domain; also called huCD137; His-tagged soluble human CD137
- experimentSummary: SPR (BIACORE); antibody captured on anti-human Fc; huCD137 25 and 100 nM; 1:1 Langmuir
# koff per entry

- chCD137 MAB-3 (antibody, V domains shown) VH: QVQLQQPGAELVRPGASVKLSCKASGYTFTSYWINWVKQRPGQGLEWIGNIYPSDSYTNYNQKFKDKATLTVDKSSSTAYMQLSSPTSEDSAVYYCTRDYGSSYSFDYWGQGTTLTVSS VL: DIQMTQTTSSLSASLGDRVTISCRPSQDISNYLNWYQQKPDGTVKLLIYYTSRLRSGVPSRFSGSGSGTDYSLTISNLEQEDIATYFCQQGDTLPYTFGGGTKLEIK: 0.02 s⁻¹
- chCD137 MAB-4 (antibody, V domains shown) VH: QVQLQQPGAELVRPGASVKLSCKASGYTFTSYWINWVKQRPGQGLEWIGNIYPSDSYTNYDQKFKDKATLTVDKSSSTAYMQLSSPTSEDSAVYYCTKSGEYGKIGYYAMDYWGQGTSVTVSS VL: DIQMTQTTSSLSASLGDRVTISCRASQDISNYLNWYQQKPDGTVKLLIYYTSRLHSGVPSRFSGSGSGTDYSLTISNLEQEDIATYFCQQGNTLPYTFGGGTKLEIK: 0.00092 s⁻¹
- hCD137 MAB-3 (1.1) (antibody, V domains shown, also called chCD137 MAB-3 (1.1)) VH: QVQLVQSGAEVKKPGASVKVSCKASGYTFTSYWINWVKQAPGQGLEWIGNIYPSDSYTNYNQKFKDKATITADKSTSTAYMELSSLRSEDTAVYYCTRDYGSSYSFDYWGQGTTVTVSS VL: DIQMTQSPSSLSASVGDRVTITCRPSQDISNYLNWYQQKPDGTVKLLIYYTSRLRSGVPSRFSGSGSGTDFTFTISSLQPEDIATYFCQQGDTLPYTFGQGTKLEIK: 0.031 s⁻¹

Now consider a different binder.
Query block: Any idea what its koff is? The binder is hCD137 MAB-4 (1.2) (antibody, V domains shown, also called chCD137 MAB-4 (1.2)) VH: QVQLVQSGAEVKKPGASVKVSCKASGYTFTSYWINWVRQAPGQGLEWMGNIYPSDSYTNYDQKFKDRVTMTRDTSTSTVYMELSSLRSEDTAVYYCTKSGEYGKIGYYAMDYWGQGTTVTVSS VL: DIQMTQSPSSLSASVGDRVTITCRASQDISNYLNWYQQKPDKTVKLLIYYTSRLHSGVPSRFSGSGSGTDYTLTISSLQPEDIATYYCQQGNTLPYTFGQGTKLEIK
Result block: 0.0019 s⁻¹
